Biological target: Nuclear receptor subfamily 1 group I member 2 (Homo sapiens) (UniProt O75469)
Sequence (O75469 whole entry, looked up): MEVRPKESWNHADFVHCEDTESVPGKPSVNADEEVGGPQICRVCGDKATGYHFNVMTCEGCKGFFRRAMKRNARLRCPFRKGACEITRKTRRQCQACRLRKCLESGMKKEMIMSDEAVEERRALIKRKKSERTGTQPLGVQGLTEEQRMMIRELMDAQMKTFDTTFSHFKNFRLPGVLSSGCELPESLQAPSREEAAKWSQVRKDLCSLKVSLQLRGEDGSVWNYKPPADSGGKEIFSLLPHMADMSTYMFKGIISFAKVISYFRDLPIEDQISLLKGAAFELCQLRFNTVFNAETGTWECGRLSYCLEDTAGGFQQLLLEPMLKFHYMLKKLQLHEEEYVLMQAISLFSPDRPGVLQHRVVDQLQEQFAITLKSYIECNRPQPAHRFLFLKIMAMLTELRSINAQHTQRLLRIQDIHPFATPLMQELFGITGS
Experiment: ATG_PXR_TRANS: Attagene TRANS-FACTORIAL HepG2 Assay for human Pregnane X Receptor (PXR) (AID 2283008)
Results filed as inconclusive are left out. Calls of active or inactive are those of the source. The calls were made as follows: active = hit-call score of the fitted dose curve at least 0.9, where 1 is the maximum; inconclusive = response in the unintended direction; inactive = score below 0.9.
ASSAY_ENDPOINT: outcome

CCc1cccc(C)c1N(C(=O)C(=O)O)C(C)COC (stereo not drawn) | inactive
Cc1cc(=O)[nH]c(C(C)C)n1 | inactive
CCN=c1cc2oc3cc(NCC)c(C)cc3c(-c3ccccc3C(=O)OCC)c-2cc1C | inactive

###

Biological target: Transcriptional activator Myb (Homo sapiens) (UniProt P10242)
Sequence (P10242 whole entry, looked up): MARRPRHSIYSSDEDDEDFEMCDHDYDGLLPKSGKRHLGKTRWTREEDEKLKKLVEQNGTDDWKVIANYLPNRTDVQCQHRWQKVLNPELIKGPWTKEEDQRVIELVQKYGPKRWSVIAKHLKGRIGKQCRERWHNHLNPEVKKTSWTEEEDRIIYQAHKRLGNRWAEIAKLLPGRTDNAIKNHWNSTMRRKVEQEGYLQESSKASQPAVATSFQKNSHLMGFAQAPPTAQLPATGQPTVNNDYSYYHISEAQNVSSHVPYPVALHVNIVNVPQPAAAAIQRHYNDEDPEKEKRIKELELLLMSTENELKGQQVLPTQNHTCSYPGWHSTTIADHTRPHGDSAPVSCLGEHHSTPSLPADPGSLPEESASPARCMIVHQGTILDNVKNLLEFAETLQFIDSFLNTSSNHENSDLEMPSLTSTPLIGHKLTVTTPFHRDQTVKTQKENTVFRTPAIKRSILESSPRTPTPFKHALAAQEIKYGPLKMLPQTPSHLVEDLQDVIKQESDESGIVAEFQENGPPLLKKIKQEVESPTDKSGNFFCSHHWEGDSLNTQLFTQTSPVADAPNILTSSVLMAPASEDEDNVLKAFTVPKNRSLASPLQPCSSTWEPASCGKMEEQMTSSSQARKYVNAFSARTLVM
Experiment: ATG_Myb_CIS: Attagene CIS-FACTORIAL HepG2 Assay for human Myeloblastosis (Myb) Proto-Oncogene Transcription Factor (AID 2282986)
Settings: HepG2 Attagene CIS-FACTORIAL Myb reporter transcription; actives raise or lower the signal
Calls of active or inactive are those of the source. The calls were made as follows: active = hit-call score of the fitted dose curve at least 0.9, where 1 is the maximum; inactive = score below 0.9.
Bench note: report the call from active, inactive

Cc1ccc(S(=O)(=O)C(I)I)cc1 | active
O=S(=O)(O)c1ccc(Cl)cc1 | inactive
NC(=O)C(F)(F)C(F)(F)C(F)(F)F | inactive
CC(C)(C)c1cc(CCC(=O)NCCCCCCNC(=O)CCc2cc(C(C)(C)C)c(O)c(C(C)(C)C)c2)cc(C(C)(C)C)c1O | inactive
O=C1OC(=O)c2ccc3c4c(ccc1c24)C(=O)OC3=O | inactive
CC(=O)C=O | inactive

Tell me the assay call for FC(F)(F)C(F)(F)C(F)(F)C(F)(F)C(F)(F)C(F)(F)CC[Si](Cl)(Cl)Cl please.
inactive

Tell me the assay call for Cc1ccc([N+](=O)[O-])c(C)c1 please.
inactive

Tell me the assay call for Brc1ccccn1 please.
inactive

Tell me the assay call for O=C1c2c(O)ccc(Nc3ccc(CCO)cc3)c2C(=O)c2c([N+](=O)[O-])ccc(O)c21 please.
inactive

Tell me the assay call for Cc1ccc(O)c(-n2nc3ccccc3n2)c1 please.
inactive

Tell me the assay call for CC1=CC2C3C=CC(C3)C2C1C (configuration not stated) please.
inactive

###

Read-out: Interleukin-8 (IL8), CXCL8 (gene 3576)
Assay: BSK_3C_IL8: BioMAP Diversity Plus: 3C Assay for Interleukin-8 (IL8) Biomarker Activity (AID 2283020)
Conditions: primary human endothelial cells (HUVEC); actives raise or lower the signal
Active and inactive are the calls of the source. The calls were made as follows: active = hit-call score of the fitted dose curve at least 0.9, where 1 is the maximum; inactive = score below 0.9.
ASSAY_ENDPOINT: AC50

O=C(O)C(F)(F)C(F)(F)C(F)(F)C(=O)O | inactive
OCC(O)CC(F)(F)C(F)(F)C(F)(F)C(F)(F)C(F)(F)C(F)(F)C(F)(F)C(F)(F)F (stereo not given) | inactive
Cc1ccc(S(=O)(=O)C(I)I)cc1 | 4.26 µM (active)
O=C1C=CC(=O)N1c1ccc(Cc2ccc(N3C(=O)C=CC3=O)cc2)cc1 | 7.33 µM (active)

Switching to the query record.
Can you share its AC50? I mean this compound: NS(=O)(=O)C(F)(F)C(F)(F)C(F)(F)C(F)(F)C(F)(F)C(F)(F)F
inactive

###

Read-out: Pselectin, SELP (gene 6403)
Assay: BSK_4H_Pselectin: BioMAP Diversity Plus: 4H Assay for Pselectin Biomarker Activity (AID 2283026)
Settings: primary human endothelial cells (HUVEC); actives raise or lower the signal
The source made the active and inactive calls. How the source made its calls: active means hit-call score of the fitted dose curve at least 0.9, where 1 is the maximum; inactive means score below 0.9.
Bench note: report the call from 1.0 for active, 0.0 for inactive

OCC(O)CC(F)(F)C(F)(F)C(F)(F)C(F)(F)F (stereo not given) | 0.0
CCN(CC)c1ccc2c(c1)Oc1cc(N(CC)CC)ccc1C21OC(=O)c2ccccc21 | 0.0
CCN(CC)c1ccc(N=Nc2ccccc2)cc1 | 1.0
OCC(O)CC(F)(F)C(F)(F)C(F)(F)C(F)(F)C(F)(F)C(F)(F)C(F)(F)C(F)(F)F (stereo not given) | 0.0

Lab note: next compound to report on.
Tell me the assay call for O=C(O)C(F)(F)OC(F)(F)C(F)(F)OC(F)(F)C(F)(F)OC(F)(F)F please.
0.0

###

Assay: CCTE_Padilla_ZF_Score.Craniofacial: CCTE's 144 Hour Post-fertilization zebrafish Assay Score for Craniofacial Malformation, Padilla Lab (AID 2284405)
The source made the active and inactive calls. Rule for the calls: active = hit-call score of the fitted dose curve at least 0.9, where 1 is the maximum; inactive = score below 0.9.
Bench note: report the call from 1.0 = active, 0.0 = inactive

Solved entries:
O=C(O)C(F)(F)C(F)(F)C(F)(F)C(=O)O | 0.0
NC(=O)C(F)(F)C(F)(F)C(F)(F)F | 0.0
CNS(=O)(=O)C(F)(F)C(F)(F)C(F)(F)C(F)(F)C(F)(F)C(F)(F)C(F)(F)C(F)(F)F | 1.0

Tell me the assay call for NS(=O)(=O)C(F)(F)C(F)(F)C(F)(F)C(F)(F)C(F)(F)C(F)(F)F please.
1.0

Tell me the assay call for O=C(O)C(F)(F)C(F)(F)C(F)(F)OC(F)(C(F)(F)F)C(F)(F)F please.
0.0

Tell me the assay call for CCOC(=O)CC(=O)C(F)(F)C(F)(F)F please.
0.0

###

Experiment: ATG_TA_CIS: Attagene CIS-FACTORIAL HepG2 Assay for human TA Basal Promoter (AID 2282964)
Conditions: HepG2 Attagene CIS-factorial TA basal promoter reporter; actives raise or lower the signal
Activity calls are given as the source filed them. Rule for the calls: active = hit-call score of the fitted dose curve at least 0.9, where 1 is the maximum; inactive = score below 0.9.
Bench note: report the call from label 1 = active, label 0 = inactive

CCCC(=O)OCC(COC(=O)CCC)OC(=O)CCC | label 0
NC(=O)C(F)(F)C(F)(F)C(F)(F)C(F)F | label 0
O=C1C=CC(=O)N1c1ccccc1 | label 0

Tell me the assay call for Brc1ccccn1 please.
label 0

Tell me the assay call for CC1=CCC(=O)O1 please.
label 0

Tell me the assay call for CCOC(=O)C1CC(=O)C(=C(O)C2CC2)C(=O)C1 (centres undefined) please.
label 0

Tell me the assay call for CC1=CC2C3C=CC(C3)C2C1C (centres undefined) please.
label 0

Tell me the assay call for C[C@]12CC[C@H]3C(=CCc4cc(O)ccc43)[C@@H]1CCC2=O please.
label 0

###

Target: Nucleoli Translocation, AR (gene 367) (UniProt P10275)
Sequence (P10275 whole entry, looked up): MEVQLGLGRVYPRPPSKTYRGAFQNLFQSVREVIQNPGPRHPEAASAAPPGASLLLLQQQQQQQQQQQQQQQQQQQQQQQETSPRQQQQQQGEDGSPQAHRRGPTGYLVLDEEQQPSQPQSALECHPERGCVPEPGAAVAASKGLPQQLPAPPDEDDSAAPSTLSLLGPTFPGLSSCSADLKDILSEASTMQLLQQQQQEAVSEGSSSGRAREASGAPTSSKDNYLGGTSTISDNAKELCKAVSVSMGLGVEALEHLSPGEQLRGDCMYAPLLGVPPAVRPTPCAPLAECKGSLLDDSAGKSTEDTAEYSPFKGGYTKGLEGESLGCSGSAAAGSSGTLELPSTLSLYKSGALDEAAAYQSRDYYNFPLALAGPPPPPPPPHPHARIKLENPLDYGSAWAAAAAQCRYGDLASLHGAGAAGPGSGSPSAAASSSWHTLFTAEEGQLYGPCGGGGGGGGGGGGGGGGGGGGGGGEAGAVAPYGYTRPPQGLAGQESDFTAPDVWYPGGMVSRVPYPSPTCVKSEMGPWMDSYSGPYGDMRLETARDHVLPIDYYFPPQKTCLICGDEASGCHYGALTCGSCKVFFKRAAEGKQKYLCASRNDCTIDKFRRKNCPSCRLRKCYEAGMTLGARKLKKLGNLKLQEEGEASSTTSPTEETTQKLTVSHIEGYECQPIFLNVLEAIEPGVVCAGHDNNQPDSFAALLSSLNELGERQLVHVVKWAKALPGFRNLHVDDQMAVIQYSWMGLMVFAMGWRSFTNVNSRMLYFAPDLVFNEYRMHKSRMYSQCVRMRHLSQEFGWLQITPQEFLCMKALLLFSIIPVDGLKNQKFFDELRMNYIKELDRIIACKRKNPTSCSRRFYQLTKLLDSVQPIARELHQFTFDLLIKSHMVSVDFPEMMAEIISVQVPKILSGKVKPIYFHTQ
Test: UPITT_HCI_U2OS_AR_TIF2_Nucleoli_Antagonist: University of Pittsburgh U2OS Androgen Receptor-Transcriptional Intermediary Factor 2 (AR-TIF2) Antagonism High Content Imaging Assay for Nucleoli Translocation (AID 2283997)
Description: UPITT_AR_TIF2_PPIB is a cell-based, high-content imaging assay that uses U2OS, a human osteosarcoma cell line, expressing a human androgen receptor fused to red fluorescent protein and the coactivator TIF2 fused to green fluorescent protein. UPITT_HCI_U2OS_AR_TIF2_Nucleoli_Antagonist is one of four assay components measured from the UPITT_AR_TIF2_PPIB assay. […]
Results filed as inconclusive are left out. The source made the active and inactive calls. The calls were made as follows: active = hit-call score of the fitted dose curve at least 0.9, where 1 is the maximum; inconclusive = response in the unintended direction; inactive = score below 0.9.
Bench note: report the call from 1.0 for active, 0.0 for inactive

Solved entries:
O=C1C=CC(=O)N1c1ccccc1 | 1.0
F[Si-2](F)(F)(F)(F)F | 0.0
Cc1cccc(C)n1 | 0.0
C[C@]12CC[C@H]3C(=CCc4cc(O)ccc43)[C@@H]1CCC2=O | 1.0
CCCCCCCCCCCCC[N+](C)(C)Cc1ccccc1 | 1.0

Tell me the assay call for CCN=C1C=CC(=C(c2ccc(N(CC)CC)cc2)c2ccc(N(CC)CC)cc2)c2ccccc21 please.
1.0

Tell me the assay call for CCCCCCCC/C=C\CCCCCCCC(=O)OCC(O)CO (centres undefined) please.
0.0

Tell me the assay call for CCCCCCCCCc1ccc(OCCO)cc1 please.
0.0

Tell me the assay call for CC1CCCCC1 please.
0.0

###

Experiment: ATG_VDRE_CIS: Attagene CIS-FACTORIAL HepG2 Assay for human Vitamin D Receptor Element (VDRE) (AID 2282968)
Details: HepG2 VDRE cis-reporter transcription, actives raise or lower the signal
Active and inactive are the calls of the source. The calls were made as follows: active = hit-call score of the fitted dose curve at least 0.9, where 1 is the maximum; inactive = score below 0.9.
Bench note: report the call from true (1) (active), false (0) (inactive)

CCOC(C=C(C)CCC=C(C)C)OCC | true (1)

Tell me the assay call for CN(N=O)C(=O)N[C@@H]1[C@@H](O)[C@H](O)[C@@H](CO)O[C@@H]1O please.
false (0)

Tell me the assay call for NCC(F)(F)C(F)(F)C(F)(F)C(F)(F)C(F)(F)C(F)(F)F please.
false (0)

Tell me the assay call for OCC(F)(F)C(F)(F)C(F)(F)C(F)(F)C(F)(F)C(F)(F)CO please.
false (0)

Tell me the assay call for FC(F)(F)C(F)(F)C(F)(F)CC1CO1 (centres undefined) please.
false (0)

Tell me the assay call for CC(=O)C=O please.
false (0)

Tell me the assay call for CCCCOC(=O)[C@H](C)O please.
false (0)

Tell me the assay call for O=C(Cl)C(F)(F)C(F)(F)C(F)(F)C(F)(F)C(F)(F)C(F)(F)C(F)(F)F please.
false (0)

Tell me the assay call for CCn1c2ccccc2c2ccccc21 please.
false (0)

Tell me the assay call for OCCCCl please.
false (0)

Tell me the assay call for Oc1ccc(C2(c3ccc(O)c(C4CCCCC4)c3)CCCCC2)cc1C1CCCCC1 please.
true (1)

Tell me the assay call for CCN=c1cc2oc3cc(NCC)c(C)cc3c(-c3ccccc3C(=O)OCC)c-2cc1C please.
false (0)

Tell me the assay call for CCCCCCCC/C=C\CCCCCCCC(=O)N(C)CC(=O)O please.
false (0)

Tell me the assay call for NC(=O)C(F)(F)C(F)(F)C(F)(F)C(F)(F)C(F)(F)C(F)(F)C(F)(F)F please.
false (0)

Tell me the assay call for C=CC(=O)OCC(F)(F)C(F)(F)C(F)(F)C(F)(F)C(F)(F)C(F)(F)C(F)(F)C(F)F please.
false (0)

# credit: PubChem BioAssay (EPA / NIEHS)
